- method: Plasmodium falciparum growth inhibition, primary screen, strain 3D7, DAPI fluorescence, 100 nL (AID 1184);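 note: parasites grown inside human red blood cells in medium with human serum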
- appliedConditions: P. falciparum 3D7 growth, 3 d, higher = more signal
valueKind: z-score
Please state the value as a number alone, without comment.

Exam item: Item under review: `COc1ccc(OC[C@H]2CN3[C@@H](CC[C@@H](C)[C@@H]3c3ccc(Br)cc3)C(=O)O2)cc1` . Reported z-score?
Marked response: -1.32

Exam item: Dear colleague, I am looking for the recorded z-score of the following compound: `CO[C@@H]1COC(=O)[C@H](COCc2ccccc2)NC(=O)CC=C[C@@H](C)[C@H](OC)COC(=O)[C@@H](C)NC(=O)CC=C[C@H]1C`
Marked response: 0.591

Exam item: // lookup z-score for `O=C1C[C@@H](O)[C@@H](O)[C@@H]2[C@@H]3C(=O)N(c4ccc(F)cc4F)C(=O)[C@@H]3CC[C@H]12`
Marked response: 0.289

Exam item: Request the reported z-score associated with `CC(=O)OC[C@H]1O[C@H](C#CCC2CCCCC2)C=C[C@@H]1OC(C)=O`
Marked response: 0.951

Exam item: Find the recorded z-score belonging to COC(=O)[C@H](C)NC(=O)CCC1CC(OC(=O)NCc2ccc3c(c2)OCO3)CC2(CCCC(COC(=O)NCc3ccccc3)O2)O1 (some centres undefined) and report it.
Marked response: -1.75

Exam item: Reported z-score for `CC(C)(C)N1C(=O)[C@H]2[C@H]3[C@H](O)[C@H](O)CC(=NNC(=O)OCc4ccccc4)[C@@H]3CC[C@H]2C1=O` : what is it?
Marked response: 2.05

Exam item: What value of z-score has been reported for the following compound? CC(CCC(=O)OC[C@H]1O[C@H](C#Cc2ccccc2)C=C[C@@H]1Oc1ccc(C)cc1)=NOC(C)CN1CCCc2nc(C)c(C)cc21 (some centres undefined)
Marked response: -1.9

Exam item: Fill in: z-score of `CCOC(=O)CCN1C(=O)[C@H]2[C@H]3[C@H](O)[C@H](O)CC(=NNC(=O)OCc4ccc(OC)cc4)[C@H]3CC[C@H]2C1=O` is ___
Marked response: 0.144

Exam item: Name the reported z-score value associated with the compound CC(=O)OC[C@H]1O[C@H](CC=NOC(C)CN2CCCCc3nc(C)c(C)cc32)C=C[C@@H]1OC(C)=O (some centres undefined)
Marked response: -0.445

Exam item: Item CC(CCN1CCc2nc(-c3ccccc3)c(-c3ccccc3)cc2C1)=NOC(C)CN1CCCc2nc(C)c(C)cc21 (centres undefined) has what recorded z-score?
Marked response: 0.5

Exam item: Which value of z-score has been reported for `C=CC[C@@H]1C=C[C@H](Oc2ccc(C)cc2)[C@@H](COC(=O)NCc2cccc3ccccc23)O1` in the records?
Marked response: -0.517

Exam item: Would you mind telling me what z-score value was observed for COC(=O)CC=C[C@@H](C)[C@@H](C=NOC(C)CN1CCCCc2nc(C)c(C)cc21)OC (some centres undefined) ?
Marked response: 1

Exam item: Given the entry `CCN1C(=O)[C@H]2[C@H]3[C@H](O)[C@H](O)CC(=NOCC(C)C)[C@H]3CC[C@H]2C1=O` , report its measured z-score.
Marked response: 1.82

Exam item: Value lookup for z-score; key = `COc1ccc(O[C@H]2C=C[C@@H](c3ccccc3)O[C@@H]2CON=C(C)CCN2CCCc3nc(C)c(C)cc32)cc1`
Marked response: -1.96

Exam item: Could you tell me which z-score is on file for `C=CC[C@@H]1C=C[C@H](ON=C(C)CCN2CCCc3nc(C)c(C)cc32)[C@@H](CO)O1` ?
Marked response: -2.16

Exam item: Quick one: z-score for `COC(=O)[C@@H]1CC[C@H](C)[C@@H](c2ccc(C)cc2)N1C(=O)c1ccc(C=NOC[C@@H](O)[C@H]2O[C@@H]3OC(C)(C)O[C@@H]3[C@H]2O)cc1` ?
Marked response: -0.209
